Tested on: HCC-2998 colon
Assay: NCI tumour cell line growth inhibition, 48 h
Some compounds, each annotated with its measured TGI.

{"columns": ["compound", "TGI"],
 "data": [
  ["Cn1c(=O)nc2n(-c3ccc(Cl)c(C(F)(F)F)c3)c3ccccc3nc-2c1=O", "80.8 µM"],
  ["CC#CC(O)(C(=O)OC1CC(C)N(C)C(C)(C)C1)C1CCCC1 (stereo unspecified)", "> 100 µM"],
  ["CCOC(=O)c1sc2ncnc(N)c2c1C", "> 100 µM"],
  ["CC(C)(C)c1ccc(OC2CCO2)cc1 (stereo unspecified)", "94.1 µM"],
  ["COc1cc(C(O)c2ccc3c(c2)OCO3)cc(OC)c1OC (stereo unspecified)", "> 100 µM"],
  ["COc1ccc(/C=N/n2c(C)nc3c(sc(=S)n3-c3ccccc3)c2=O)cc1", "> 100 µM"]
]}
